# Test system: crabgrass
# assay.method.text: Test B pre/postemergence crabgrass
# Format: in vivo, Digitaria sanguinalis
# conditions: Postemergence, Rate 62 g/ha; scale of 0 to 10, 0 is no effect, 10 is complete control
Reported Crabgrass plant response rating is given for each of the following compounds.
// return just the number, without any unit appended

Reported Crabgrass plant response rating for CCOC(=O)C=C(Cn1c(=O)on(C(=O)N(c2ccc(Cl)cc2)C(C)C)c1=O)OCC : what is it?
2

Subsequent entry: CCC(=O)Cn1c(=O)on(C(=O)N(c2ccc(F)cc2F)C(C)C)c1=O
3

Next up: CC(C)N(C(=O)n1oc(=O)n(CCCF)c1=O)c1ccc(F)cc1F
6

CC(=O)OCCCCn1c(=O)on(C(=O)N(c2ccc(F)cc2F)C(C)C)c1=O ?
0

Also C=CCCCn1c(=O)on(C(=O)N(c2ccccc2)C(C)C)c1=O ?
0

Next: CC(C)N(C(=O)n1oc(=O)n(C(C)CBr)c1=O)c1ccc(F)cc1F (stereo not drawn)
5

====

# Tested on: bedstraw
# assay.method.text: Test B pre/postemergence bedstraw
# Format: in vivo, Galium aparine
# conditions: Rate 62 g/ha, Postemergence; scale 0 to 10 (0 no effect, 10 complete control)
experimental.endpoint: Bedstraw plant response rating

1. CC(C)N(C(=O)n1oc(=O)n(Cc2ccccc2-c2ccccc2)c1=O)c1ccc(F)cc1 ... 5
2. CC(C)N(C(=O)n1oc(=O)n(C(C)C#N)c1=O)c1ccccc1 (stereo not shown) ... 0
3. CC(C)N(C(=O)n1oc(=O)n(C2CC3CCC2C3)c1=O)c1ccc(F)cc1 (stereo not shown) ... 7
4. CC(C)N(C(=O)n1oc(=O)n(Cc2nnsc2Cl)c1=O)c1ccc(F)cc1F ... 0
5. CC(C)N(C(=O)n1oc(=O)n(COC(=O)C(C)(C)C)c1=O)c1ccc(F)cc1 ... 0

Which Bedstraw plant response rating is reported for this molecule? CC(C)N(C(=O)n1oc(=O)n(CC2=NCCCO2)c1=O)c1ccccc1
0

Also need CCN(C(=O)n1oc(=O)n(C(C)C)c1=O)C1CCCCC1 , thanks.
0

====

# System: crabgrass
# assay.method.text: Test B pre/postemergence crabgrass
# Type: in vivo, Digitaria sanguinalis
# conditions: Postemergence, Rate 125 g/ha; scale 0 to 10, 0 is no effect, 10 is complete control
Just a reminder that ties go to Not satisfied: only Crabgrass plant response rating strictly below 3 counts as Satisfied.

Examples from the recorded data:
1. CC(C)N(C(=O)n1oc(=O)n(CCCNC(=O)CCl)c1=O)c1ccccc1 ... Satisfied
2. CC(C)N(C(=O)n1oc(=O)n(CC2CC2)c1=O)c1ccc(F)cc1F ... Not satisfied
3. CC(C)N(C(=O)n1oc(=O)n(C[Si](C)(C)C)c1=O)c1ccc(F)cc1F ... Satisfied
4. CCC(=O)Cn1c(=O)on(C(=O)N(c2ccc(F)cc2F)C(C)C)c1=O ... Not satisfied

Consider the compound CC(C)N(C(=O)n1oc(=O)n(CCC2OCCCO2)c1=O)c1ccc(Cl)cc1 . Is its Crabgrass plant response rating strictly less than 3?
Not satisfied

One more compound: CCN(CC)C(=O)Cn1c(=O)on(C(=O)N(c2ccc(F)cc2F)C(C)C)c1=O
Satisfied

====

# System: crabgrass
# assay.method.text: Test B pre/postemergence crabgrass
# Type: in vivo, Digitaria sanguinalis
# conditions: Rate 62 g/ha, Postemergence; scale of 0 to 10 where 0 is no effect and 10 is complete control
experimental.endpoint: Crabgrass plant response rating
Number only, please.

Name the reported Crabgrass plant response rating value associated with the compound CC1CC1n1c(=O)on(C(=O)N(c2ccccc2)C(C)C)c1=O (stereo not shown)
3

Next entry: Cc1nsc(C)c1-n1c(=O)on(C(=O)N(c2ccc(F)cc2F)C(C)C)c1=O
0

Also check CC(C)N(C(=O)n1oc(=O)n(C)c1=O)c1ccc(F)cc1F
6

// next record CC(C)N(C(=O)n1oc(=O)n(Cc2ccccc2Cl)c1=O)C1=CCCCC1
2

Numbers sourced from patent US6737383B1.
